Data provenance: the RNAGym collection of RNA variant scans (doi:10.7554/elife.80360)

B1: CPEB3 Ribozyme (parent)
chain: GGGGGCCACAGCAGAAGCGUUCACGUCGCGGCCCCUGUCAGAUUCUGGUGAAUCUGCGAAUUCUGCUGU

variants of: B1; experiment: self-cleavage, relative activity (ratio to wild type); higher = more cleavage; co-transcriptional
Each item that follows carries a reported self-cleavage.
Reported Property: self-cleavage

>>> observed_result("G41A U46A")
0.863
>>> observed_result("G11A G65A")
0.759
>>> observed_result("U44A U61C")
0.662
>>> observed_result("G3A A59U")
0.198
>>> observed_result("G31U A60G")
0.277
>>> observed_result("A15U C66A")
0.324
>>> observed_result("C7A U36C")
0.223
>>> observed_result("C12U U46C")
0.939
>>> observed_result("U49G A51C")
0.939
>>> observed_result("C24A C57U")
0.248
>>> observed_result("G14U U64A")
0.458
>>> observed_result("G19A G68U")
0.232
>>> observed_result("A15C U21C")
0.51
>>> observed_result("A10U G58C")
1.02
>>> observed_result("C18G C66A")
0.11
>>> observed_result("G3A U61C")
0.246
>>> observed_result("U20G C35U")
0.171
>>> observed_result("A13U G65A")
0.513
>>> observed_result("G2C G47C")
0.0332
>>> observed_result("G37U G48A")
0.388
>>> observed_result("G41U G65A")
0.438
>>> observed_result("A59C U61C")
0.446
